Target: MDM2 (Homo sapiens, UniProt Q00987)
Construct: Western blot of HCT116 cells treated with chimeric molecules; endogenous in cells; host or cells: HCT116
Sequence (Q00987 whole entry): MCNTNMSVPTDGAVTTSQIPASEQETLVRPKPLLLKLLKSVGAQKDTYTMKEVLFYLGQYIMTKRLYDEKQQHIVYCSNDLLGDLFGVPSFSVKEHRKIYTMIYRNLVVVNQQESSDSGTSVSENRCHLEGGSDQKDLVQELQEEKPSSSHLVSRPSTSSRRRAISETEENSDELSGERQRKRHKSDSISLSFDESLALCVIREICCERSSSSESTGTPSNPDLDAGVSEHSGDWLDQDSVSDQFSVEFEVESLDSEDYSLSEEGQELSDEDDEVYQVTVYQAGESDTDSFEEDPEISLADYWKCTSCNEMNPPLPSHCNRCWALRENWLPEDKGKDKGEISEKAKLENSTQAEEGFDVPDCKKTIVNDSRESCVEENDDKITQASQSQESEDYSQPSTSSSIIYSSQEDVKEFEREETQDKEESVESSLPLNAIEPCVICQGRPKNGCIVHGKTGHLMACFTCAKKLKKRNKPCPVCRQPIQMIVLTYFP
Experiment: Western blot of HCT116 cells, MDM2 level
Assay type: cell-based
Settings: Western blot (FIG. 2, FIG. 3)
MEASURED ATTRIBUTE: MDM2 up-regulation

Previously resolved entries follow.
COc1cc(C(=O)NCCOCCNC(=O)C[C@@H]2N=C(c3ccc(Cl)cc3)c3c(sc(C)c3C)-n3c(C)nnc32)ccc1NC(=O)[C@@H]1N[C@@H](CC(C)(C)C)[C@](C#N)(c2ccc(Cl)cc2F)[C@H]1c1cccc(Cl)c1F [Compound A1892]; up-regulation of MDM2
COc1cc(C(=O)NCCOCCOCC(=O)N[C@H](C(=O)N2C[C@H](O)C[C@H]2C(=O)NCc2ccc(-c3scnc3C)cc2)C(C)(C)C)ccc1NC(=O)C1NC(CC(C)(C)C)C(C#N)(c2ccc(Cl)cc2F)C1c1cccc(Cl)c1F (mixture of isomers) [Compound A1877]; up-regulation of MDM2
COc1cc(C(=O)NCCOCCOCCOCC(=O)N[C@H](C(=O)N2C[C@H](O)C[C@H]2C(=O)NCc2ccc(-c3scnc3C)cc2)C(C)(C)C)ccc1NC(=O)[C@H]1N[C@H](CC(C)(C)C)[C@@](C#N)(c2ccc(Cl)cc2F)[C@@H]1c1cccc(Cl)c1F [Compound A1911]; no MDM2 up-regulation
COc1cc(C(=O)NCCOCCOCCOCCOCCNC(=O)C[C@@H]2N=C(c3ccc(Cl)cc3)c3c(sc(C)c3C)-n3c(C)nnc32)ccc1NC(=O)[C@H]1N[C@H](CC(C)(C)C)[C@@](C#N)(c2ccc(Cl)cc2F)[C@@H]1c1cccc(Cl)c1F [Compound A1894]; no MDM2 up-regulation

Moving on to another compound below.
QUERY: Name the reported MDM2 up-regulation value associated with the compound COc1cc(C(=O)NCCOCCOCCOCCOCC(=O)N[C@H](C(=O)N2C[C@H](O)C[C@H]2C(=O)NCc2ccc(-c3scnc3C)cc2)C(C)(C)C)ccc1NC(=O)[C@H]1N[C@H](CC(C)(C)C)[C@@](C#N)(c2ccc(Cl)cc2F)[C@@H]1c1cccc(Cl)c1F (single isomer, unassigned) [Compound A1897]
RESULT: no MDM2 up-regulation
